Let's look at some binders and their measured Stimulation Index, FXa generation assay, 800 nM OA antibody.
molecular target: human plasma-derived Factor IXa (human, UniProt P00740 47-191; P00740 227-461); test: cell-based or functional assay
Sequence (P00740 47-191, chain 1 of 2): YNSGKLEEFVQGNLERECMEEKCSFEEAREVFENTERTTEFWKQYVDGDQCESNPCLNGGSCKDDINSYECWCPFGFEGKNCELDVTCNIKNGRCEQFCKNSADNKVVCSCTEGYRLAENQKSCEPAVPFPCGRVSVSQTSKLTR
Sequence (P00740 227-461, chain 2 of 2): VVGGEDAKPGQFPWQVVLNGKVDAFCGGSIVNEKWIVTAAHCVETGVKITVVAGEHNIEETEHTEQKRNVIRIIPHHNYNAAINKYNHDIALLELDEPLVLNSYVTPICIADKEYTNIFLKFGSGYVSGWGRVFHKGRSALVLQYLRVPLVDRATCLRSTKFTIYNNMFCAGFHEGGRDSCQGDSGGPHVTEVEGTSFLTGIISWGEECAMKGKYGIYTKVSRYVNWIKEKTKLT
Report as a plain number; the unit fold is understood.

| binder | recorded_measurement |
| --- | --- |
| one-armed (OA) mAb11-0939 (antibody, V domains shown) VH: EVQLVESGGGLVQPGRSLRLSCAASGFTFHDYAMHWVRQVPGKGLEWVSGISWKGDIGGYVDSVKGRFTISRDNEKNSLYLQMNSLRAEDTALYYCVKSYGSGSFYNAFDSWGQGTLVTVSS VL: DIQMTQSPSTLSASVGDRVTITCRASQSISSWLAWYQQKPGKAPKFLIYKASRLDRGWPSRFSGSGSGTEFSLTISSLQPDDFATYYCLEYSSYIRTFGQGTKVEIK | 2010 |

Kindly consider the entry below.
State its Stimulation Index, FXa generation assay, 800 nM OA antibody: one-armed (OA) mAb11-1279 (antibody, V domains shown) VH: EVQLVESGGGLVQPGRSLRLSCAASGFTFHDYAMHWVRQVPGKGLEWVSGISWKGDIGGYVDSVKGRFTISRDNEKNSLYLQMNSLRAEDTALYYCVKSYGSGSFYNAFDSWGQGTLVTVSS VL: DIQMTQSPSTLSASVGDRVTITCRASQSISSWLAWYQQKPGKAPKFLIYKASRLDRGTPSRFSGSGSGTEFSLTISSLQPDDFATYYCLEYKSYIRTFGQGTKVEIK 1560
